- system.name: CD137 (Homo sapiens, UniProt Q07011)
- Sequence (Q07011 24-255): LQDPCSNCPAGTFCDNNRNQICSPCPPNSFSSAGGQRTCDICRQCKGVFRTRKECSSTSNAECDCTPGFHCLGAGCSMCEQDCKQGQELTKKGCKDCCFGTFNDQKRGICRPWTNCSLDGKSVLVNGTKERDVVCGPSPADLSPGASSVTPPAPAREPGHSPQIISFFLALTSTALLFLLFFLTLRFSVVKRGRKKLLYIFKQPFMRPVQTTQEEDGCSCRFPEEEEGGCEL
- test.details: CD137 reporter assay (Promega, Jurkat cells) in co-culture with EphA2-expressing tumor cells (A549, PC3, HT29)
- Type: cell-based
- Parameters: host or cells: Jurkat reporter cells
- protocol.conditions: CD137 reporter coculture assay with PC3 tumor cells; read-out: Emax (fold induction over background)
Starred links: 1 amine or outer side, 2 acyl side, 3 side chain; linkers in the order of their positions; H or OH if unused. Positions of bridges follow the written chain, without caps; N, C: chain ends. Non-standard residues stand in square brackets, D forms with d. Chains are numbered I, II in the order given. X1 = O=C(CCOCCOCCOCCN(CCOCCOCCOCCn1cc(CCC(=O)[*:2])nn1)CCOCCOCCOCCn1cc(CCC(=O)[*:3])nn1)[*:1]; TATA = O=C(CC[*:1])N1CN(C(=O)CC[*:2])CN(C(=O)CC[*:3])C1; Hyp = O=C(O)[C@@H]1C[C@@H](O)CN1; hArg = N=C(N)NCCCC[C@H](N)C(=O)O; tBuAla = CC(C)(C)C[C@H](N)C(=O)O; Cba = N[C@@H](CC1CCC1)C(=O)O; Nle = CCCC[C@H](N)C(=O)O
readout.name: fold induction
# output: bare number, no unit

// known answers, use as guide
Q: Can you share its fold induction? I mean this substance: I: A[hArg]DC[Hyp]LVNPLCLHP[dD]WTC-NH2 / II: Ac-C[tBuAla]PE[dK]PYCFADPY[Nle]CA-NH2 / III: Ac-C[tBuAla]PE[dK]PYCFADPY[Nle]CA-NH2 (linker I:4-I:11-I:18, II:1-II:8-II:15, III:1-III:8-III:15 via TATA; linker I:N-II:5-III:5 via X1) [BCY13043]
Result: 52.7

Q: Which fold induction is reported for this substance? I: [dA][hArg]DC[Hyp][Cba]VNPLCLEP[dD]WTC[dA]-NH2 / II: Ac-C[tBuAla]PE[dK]PYCFADPY[Nle]CA-NH2 / III: Ac-C[tBuAla]PE[dK]PYCFADPY[Nle]CA-NH2 (linker I:4-I:11-I:18, II:1-II:8-II:15, III:1-III:8-III:15 via TATA; linker I:N-II:5-III:5 via X1) [BCY13052]
Result: 32.9

Next item in the queue.
Q: Requested field: fold induction. Item: I: A[hArg]DC[Hyp]LVNPLCLEP[dD]W[hArg]C-NH2 / II: Ac-C[tBuAla]PE[dK]PYCFADPY[Nle]CA-NH2 / III: Ac-C[tBuAla]PE[dK]PYCFADPY[Nle]CA-NH2 (linker I:4-I:11-I:18, II:1-II:8-II:15, III:1-III:8-III:15 via TATA; linker I:N-II:5-III:5 via X1) [BCY13042]
Result: 58.3

###

- test.details: Pharmacokinetics in SD rats
- Assay type: in vivo
- protocol.conditions: rat, in vivo; IV Bolus; read-out: Vdss
Starred links: 1 amine or outer side, 2 acyl side, 3 side chain; linkers in the order of their positions; H or OH if unused. Positions of bridges follow the written chain, without caps; N, C: chain ends. Non-standard residues stand in square brackets, D forms with d. Chains are numbered I, II in the order given. X1 = O=C(CCOCCOCCOCCN(CCOCCOCCOCCn1cc(CCC(=O)[*:2])nn1)CCOCCOCCOCCn1cc(CCC(=O)[*:3])nn1)[*:1]; TATA = O=C(CC[*:1])N1CN(C(=O)CC[*:2])CN(C(=O)CC[*:3])C1; Hyp = O=C(O)[C@@H]1C[C@@H](O)CN1; hArg = N=C(N)NCCCC[C@H](N)C(=O)O; tBuAla = CC(C)(C)C[C@H](N)C(=O)O; Nle = CCCC[C@H](N)C(=O)O
readout.name: Vd
Remember to follow the number with its unit.

Q: # query: Vd of entry I: A[hArg]DC[Hyp]LVNPLCLHP[dD]W[hArg]C-NH2 / II: Ac-C[tBuAla]PE[dK]PYCFADPY[Nle]CA-NH2 / III: Ac-C[tBuAla]PE[dK]PYCFADPY[Nle]CA-NH2 (linker I:4-I:11-I:18, II:1-II:8-II:15, III:1-III:8-III:15 via TATA; linker I:N-II:5-III:5 via X1) [BCY12491]
Result: 1.6 L/kg
